Test: Half-life in nude mice (Example 22)
Format: in vivo
Settings: mouse, in vivo; nude mice, iv
Protocol: The in vitro and in vivo activity of compound 2 and two of its metabolites (compound 5 and compound 6) were explored and compared with the activity of camptothecin Top1 inhibitors. […] In human HCT-116 colon ca, HT-29 colon ca and NCI-H460 NSCLC cells the concentration response for compound 2, compound 5 and compound 6 were the same. […]. Compound 2 was administered intravenously on a QODx3 schedule for 2 cycles.
ASSAY ENDPOINT: half-life
A complete answer gives the number and then names the unit.

Exercise: Using the record for CNCCn1c(=O)c2cc(OC)c(OC)cc2c2cnc3cc4c(cc3c21)OCO4 , report its half-life.
Solution: 5.1 h

---

System: KBH5.0 BCRP+ KB3-1 Subline
Assay: Human tumor cell CFU assay (Test B)
Type: cell-based
Conditions: colony formation, continuous exposure 7-9 days
ASSAY ENDPOINT: IC90 (µM)
Output spec: scalar in µM, unitless text.

Exercise: Using the record for CCc1c2c(nc3ccc(O)cc13)-c1cc3c(c(=O)n1C2)COC(=O)[C@]3(O)CC [SN-38, 7-ethyl-10-hydroxyl-camptothecin, reference compound] , report its IC90.
Solution: 0.0188

---

Tested on: KB-V1 MDR1+ KB3-1 Subline
Test: Human tumor cell CFU assay (Test B)
Format: cell-based
Conditions: colony formation, continuous exposure 7-9 days
ASSAY ENDPOINT: pIC50
Just so you know, pIC50 here is -log10 of the concentration in molar units; reply with that number alone.

Exercise: Using the record for CCc1c2c(nc3ccc(O)cc13)-c1cc3c(c(=O)n1C2)COC(=O)[C@]3(O)CC [SN-38, 7-ethyl-10-hydroxyl-camptothecin, reference compound] , report its pIC50.
Solution: 7.82

---

# maps each entry to its IC90
Tested on: HT29 Human Colon Carcinoma
Assay: Human tumor cell CFU assay (Test B)
Assay type: cell-based
Conditions: Homo sapiens, HT-29; colony formation, continuous exposure 7-9 days; read-out: IC90 Values (95% Lower and Upper Confidence Intervals)
Output spec: scalar in nM, unitless text.

>>> df
                                   compound  value_measured
0  CNCCn1c(=O)c2cc(OC)c(OC)cc2c2cnc3cc4c(cc3c21)OCO4 [Compound 2]             0.9
1  COc1cc2c(C(=O)NCC(C)(C)N(C)C)cc3c4cc5c(cc4ncc3c2cc1OC)OCO5 [Compound 3]             1.5
2  COc1cc2c(=O)n(CCN(C)C)c3c4cc5c(cc4ncc3c2cc1OC)OCO5 [Compound 1]             4.3

Exercise: Using the record for CC[C@@]1(O)C(=O)OCc2c1cc1n(c2=O)Cc2cc3c(CN(C)C)c(O)ccc3nc2-1 [Topotecan, reference compound] , report its IC90.
Solution: 11.2

Exercise: Using the record for COc1cc2c(=O)n(CCN(C)C(C)C)c3c4cc5c(cc4ncc3c2cc1OC)OCO5 [Compound 4] , report its IC90.
Solution: 1.9

---

Tested on: NCI-H460 Human Non-small Cell Lung Carcinoma
Test: Human tumor cell CFU assay (Test B)
Format: cell-based
Conditions: Homo sapiens, NCI-H460; colony formation, continuous exposure 7-9 days; read-out: IC50 Values (95% Lower and Upper Confidence Intervals)
ASSAY ENDPOINT: IC50 (nM)
Output spec: scalar in nM, unitless text.

// known answers, use as guide
>>> print(df.to_string())
                                   molecule  assay_endpoint  value_measured
0  COc1cc2c(=O)n(CCN(C)C)c3c4cc5c(cc4ncc3c2cc1OC)OCO5 [Compound 1]            IC50             2.3
1  CC[C@@]1(O)C(=O)OCc2c1cc1n(c2=O)Cc2cc3c(CN(C)C)c(O)ccc3nc2-1 [Topotecan, reference compound]            IC50            18.2

Exercise: Using the record for COc1cc2c(C(=O)NCC(C)(C)N(C)C)cc3c4cc5c(cc4ncc3c2cc1OC)OCO5 [Compound 3] , report its IC50.
Solution: 0.9

Exercise: Using the record for CNCCn1c(=O)c2cc(OC)c(OC)cc2c2cnc3cc4c(cc3c21)OCO4 [Compound 2] , report its IC50.
Solution: 1.2

Exercise: Using the record for COc1cc2c(=O)n(CCN(C)C(C)C)c3c4cc5c(cc4ncc3c2cc1OC)OCO5 [Compound 4] , report its IC50.
Solution: 3.4

---

System: KBH5.0 BCRP+ KB3-1 Subline
Test: Human tumor cell CFU assay (Test B)
Assay type: cell-based
Conditions: Homo sapiens, KB 3-1; colony formation, continuous exposure 7-9 days; read-out: IC50 Values (95% Lower and Upper Confidence Intervals)
Procedure: For human tumor cell CFU assays, the cell lines which grow as monolayers, MDA-MB-231, HCT116, HT29, NCI-H460, KB3-1 and KBV-1 were grown in RPMI medium (Invitrogen/Gibco, Grand Island, N.Y.) supplemented with 5% fetal bovine serum (Invitrogen/Gibco, Grand Island, NY). The RPMI-8226 cell line grows in suspension. […] The values were expressed as the mean values with lower and upper 95% confidence intervals in nanomolar concentrations.
ASSAY ENDPOINT: log10 of IC50 (log10 of the value in nM)
Response schema: value (number) is log10 of IC50 in units of nM.

Exercise: Using the record for COc1cc2c(C(=O)NCC(C)(C)N(C)C)cc3c4cc5c(cc4ncc3c2cc1OC)OCO5 , report its log10 of IC50.
Solution: -0.22

Exercise: Using the record for COc1cc2c(=O)n(CCN(C)C(C)C)c3c4cc5c(cc4ncc3c2cc1OC)OCO5 , report its log10 of IC50.
Solution: 0.11

Exercise: Using the record for COc1cc2c(=O)n(CCN(C)C)c3c4cc5c(cc4ncc3c2cc1OC)OCO5 , report its log10 of IC50.
Solution: 0.26

Exercise: Using the record for CNCCn1c(=O)c2cc(OC)c(OC)cc2c2cnc3cc4c(cc3c21)OCO4 , report its log10 of IC50.
Solution: 0.00

Exercise: Using the record for CC[C@@]1(O)C(=O)OCc2c1cc1n(c2=O)Cc2cc3c(CN(C)C)c(O)ccc3nc2-1 [Topotecan, reference compound] , report its log10 of IC50.
Solution: 1.51

---

System: RPMI-8226 Human Multiple Myeloma
Experiment: Human tumor cell CFU assay (Test B)
Format: cell-based
Details: colony formation in agar, continuous exposure 7-9 days
ASSAY ENDPOINT: pIC50
Just so you know, pIC50 here is -log10 of the concentration in molar units; reply with that number alone.

Exercise: Provide value of pIC50 for this record tested with RPMI-8226 Human Multiple Myeloma: CCc1c2c(nc3ccc(O)cc13)-c1cc3c(c(=O)n1C2)COC(=O)[C@]3(O)CC [SN-38, 7-ethyl-10-hydroxyl-camptothecin, reference compound]
Solution: 9.05

---

Test system: RPMI-8226 Human Multiple Myeloma
Test: Human tumor cell CFU assay (Test B)
Type: cell-based
Settings: Homo sapiens, RPMI-8226; colony formation in agar, continuous exposure 7-9 days
# maps each entry to its pIC50
Just so you know, pIC50 here is -log10 of the concentration in molar units; reply with that number alone.

// known answers, use as guide
In [3]: df
Out[3]:
                                   molecule  value_measured
0  CC[C@@]1(O)C(=O)OCc2c1cc1n(c2=O)Cc2cc3c(CN(C)C)c(O)ccc3nc2-1 [Topotecan, reference compound]            7.90
1  COc1cc2c(C(=O)NCC(C)(C)N(C)C)cc3c4cc5c(cc4ncc3c2cc1OC)OCO5            9.15
2  COc1cc2c(=O)n(CCN(C)C(C)C)c3c4cc5c(cc4ncc3c2cc1OC)OCO5            9.40

Exercise: Using the record for COc1cc2c(=O)n(CCN(C)C)c3c4cc5c(cc4ncc3c2cc1OC)OCO5 , report its pIC50.
Solution: 8.74

Exercise: Using the record for CNCCn1c(=O)c2cc(OC)c(OC)cc2c2cnc3cc4c(cc3c21)OCO4 , report its pIC50.
Solution: 9.70

---

System: KB-V1 MDR1+ KB3-1 Subline
Experiment: Human tumor cell CFU assay (Test B)
Assay type: cell-based
Conditions: colony formation, continuous exposure 7-9 days
Protocol: For human tumor cell CFU assays, the cell lines which grow as monolayers, MDA-MB-231, HCT116, HT29, NCI-H460, KB3-1 and KBV-1 were grown in RPMI medium (Invitrogen/Gibco, Grand Island, N.Y.) supplemented with 5% fetal bovine serum (Invitrogen/Gibco, Grand Island, NY). The RPMI-8226 cell line grows in suspension. […] The values were expressed as the mean values with lower and upper 95% confidence intervals in nanomolar concentrations.
ASSAY ENDPOINT: IC90

Exercise: Using the record for CCc1c2c(nc3ccc(O)cc13)-c1cc3c(c(=O)n1C2)COC(=O)[C@]3(O)CC [SN-38, 7-ethyl-10-hydroxyl-camptothecin, reference compound] , report its IC90.
Solution: 55 nM
